These data points were gathered from patent US11667629B2.

Test: Liver microsomal stability test, dog
Format: in vitro ADME
Details: liver microsomes; dog liver microsome, 1 μM compound, 0.5 mg/mL, NADPH
Recorded endpoint: half-life at 1 μM (h)
Provide only the numeric value, understood in h.

Look up half-life at 1 μM for this compound: O=C(O)c1ccc(-c2csc(N3[C@@H]4CC[C@H]3C[C@@H](OCc3c(-c5ccccc5OC(F)(F)F)noc3C3CC3)C4)n2)cc1C(F)(F)F
4.32

---

Target: FXR (Homo sapiens, UniProt Q96RI1)
Construct: purchased Invitrogen
Experiment: Bile acid receptor FXR coactivator binding assay (LanthaScreen TR-FRET)
Format: biochemical
Conditions: TR-FRET coactivator assay, four-parameter fit; read-out: EC50 of the compounds on FXR
Recorded endpoint: pEC50
Lab note — pEC50 values are minus log10 of concentrations in M.

1. O=C(O)c1ccc(-c2csc(N3[C@@H]4CC[C@H]3C[C@@H](OCc3c(-c5ccccc5OC(F)(F)F)noc3C3CC3)C4)n2)cn1
7.51
2. O=C(O)c1ccc(-c2csc(N3[C@@H]4CC[C@H]3C[C@@H](OCc3c(-c5ccccc5OC(F)(F)F)noc3C3CC3)C4)n2)s1
7.89
3. Cn1nc(C(=O)O)cc1-c1cccc(N2CCC(OCc3c(-c4c(Cl)cccc4Cl)noc3C3CC3)CC2)c1
6.69
4. O=C(O)c1ccc(-c2csc(N3[C@@H]4CC[C@H]3C[C@@H](OCc3c(-c5ccccc5OC(F)(F)F)noc3C3CC3)C4)n2)cc1C(F)(F)F
8.70

Consider the record given below.
So what's the measured pEC50 for this one? O=C(O)c1ccc(-c2csc(N3CCC(OCc4c(-c5c(Cl)cccc5Cl)noc4C4CC4)CC3)n2)cc1
7.92

---

Below, each of the molecules is paired with its reported Emax value.
Molecular target: FXR (Homo sapiens, UniProt Q96RI1)
Construct: expressed in transfected cells; host or cells: HEK293
Sequence (Q96RI1 1-486): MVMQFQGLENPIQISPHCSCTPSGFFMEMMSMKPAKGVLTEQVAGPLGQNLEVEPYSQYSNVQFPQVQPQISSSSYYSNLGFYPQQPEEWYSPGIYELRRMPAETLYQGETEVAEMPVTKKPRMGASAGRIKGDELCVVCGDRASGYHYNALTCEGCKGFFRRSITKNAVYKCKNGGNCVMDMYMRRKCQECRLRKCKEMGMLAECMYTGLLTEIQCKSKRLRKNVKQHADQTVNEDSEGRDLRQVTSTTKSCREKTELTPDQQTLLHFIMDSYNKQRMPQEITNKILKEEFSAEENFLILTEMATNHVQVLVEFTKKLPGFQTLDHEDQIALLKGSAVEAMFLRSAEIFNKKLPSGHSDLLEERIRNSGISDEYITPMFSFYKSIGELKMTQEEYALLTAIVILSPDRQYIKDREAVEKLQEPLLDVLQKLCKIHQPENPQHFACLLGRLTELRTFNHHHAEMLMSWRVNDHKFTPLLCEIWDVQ
Assay: Luciferase reporter gene assay (HEK293 cotransfected with FXR and human BSEP luciferase reporter)
Format: cell-based
Details: HEK293; maximum activation effect, relative signal percentage, blank well = 100%
Protocol: Human embryonic kidney cells HEK293 were cultured in a DMEM medium containing 10% FBS. Plasmids were cotransfected to allow the cells to have over expression of FXR and human BSEP luciferase reporter genes. The transfected cells were digested, resuspended, counted, and plated in a multi-well plate. […] Taking the signal value of the blank well (without the test compound) as 100%, the relative signal percentage (%) at each concentration of the test compound was calculated. […]
Expressed in %, but write only the number.

For orientation, consider the following solved cases.
1. O=C(O)c1ccc(-c2csc(N3[C@@H]4CC[C@H]3C[C@@H](OCc3c(-c5ccccc5OC(F)(F)F)noc3C3CC3)C4)n2)c(F)c1
343
2. O=C(O)c1cc(-c2csc(N3[C@@H]4CC[C@H]3C[C@@H](OCc3c(-c5ccccc5OC(F)(F)F)noc3C3CC3)C4)n2)cs1
370

// next item, Emax requested
May I ask what Emax has been recorded for Cc1cc(C(=O)O)ccc1-c1csc(N2[C@@H]3CC[C@H]2C[C@@H](OCc2c(-c4c(Cl)cccc4Cl)noc2C2CC2)C3)n1 ?
411
